test system: c-Src; experiment: phosphorylation enrichment, bacterial display (enrichment ratio); higher = better substrate or ligand; peptides without Tyr show the background;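 further: 11-residue human phosphosite peptides and single-mutation variants displayed on the E. coli surface, counted by deep sequencing, each peptide's frequency after selection divided by its frequency in the unselected input library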;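 further: frequency after pTyr selection over input frequency; kinase dosed for 20-30% of maximal phosphorylation in three min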

residue_codes | phosphorylation enrichment
GDYLSYREFHL [ERBIN_Y1107_S1112L] | 2.46
ERMKVYVPIGF [EPHX1_Y393_T396I] | 0.907
KLIETYFSKNF [PLP1_Y50_YF] | 0.558
MNPPPYSQFLS [FGF23_Y154] | 1.38
MKKKIYAMGGG [GAN_Y424] | 0.393
FVSSFYHAFSG [ACTN4_Y265_YF] | 4.01
NKYTTYLPRLP [C9orf24_Y126] | 0.616
LQFRNYQQLFD [MAN2A1_Y442_K440R] | 1.03
HLVLNYGVCVC [JAK2_Y613] | 0.779
DFFDLYGGEKF [PTPN11_Y66_YF] | 2.79
RRNVFYFSFLL [PTEN_Y177_Y174N_YF] | 1.29
WQQQSYLDSEI [CTNNB1_Y30_G34E] | 0.421
VYYYSYLLKNH [PTEN_Y180] | 1.63
REAAAYLHGRL [AGXT_Y297] | 0.655

* * *

target: EPHB1 (UniProt P54762); assay: phosphorylation enrichment, bacterial display (enrichment ratio); higher = better substrate or ligand; peptides without Tyr show the background
Sequence (P54762 whole entry, looked up): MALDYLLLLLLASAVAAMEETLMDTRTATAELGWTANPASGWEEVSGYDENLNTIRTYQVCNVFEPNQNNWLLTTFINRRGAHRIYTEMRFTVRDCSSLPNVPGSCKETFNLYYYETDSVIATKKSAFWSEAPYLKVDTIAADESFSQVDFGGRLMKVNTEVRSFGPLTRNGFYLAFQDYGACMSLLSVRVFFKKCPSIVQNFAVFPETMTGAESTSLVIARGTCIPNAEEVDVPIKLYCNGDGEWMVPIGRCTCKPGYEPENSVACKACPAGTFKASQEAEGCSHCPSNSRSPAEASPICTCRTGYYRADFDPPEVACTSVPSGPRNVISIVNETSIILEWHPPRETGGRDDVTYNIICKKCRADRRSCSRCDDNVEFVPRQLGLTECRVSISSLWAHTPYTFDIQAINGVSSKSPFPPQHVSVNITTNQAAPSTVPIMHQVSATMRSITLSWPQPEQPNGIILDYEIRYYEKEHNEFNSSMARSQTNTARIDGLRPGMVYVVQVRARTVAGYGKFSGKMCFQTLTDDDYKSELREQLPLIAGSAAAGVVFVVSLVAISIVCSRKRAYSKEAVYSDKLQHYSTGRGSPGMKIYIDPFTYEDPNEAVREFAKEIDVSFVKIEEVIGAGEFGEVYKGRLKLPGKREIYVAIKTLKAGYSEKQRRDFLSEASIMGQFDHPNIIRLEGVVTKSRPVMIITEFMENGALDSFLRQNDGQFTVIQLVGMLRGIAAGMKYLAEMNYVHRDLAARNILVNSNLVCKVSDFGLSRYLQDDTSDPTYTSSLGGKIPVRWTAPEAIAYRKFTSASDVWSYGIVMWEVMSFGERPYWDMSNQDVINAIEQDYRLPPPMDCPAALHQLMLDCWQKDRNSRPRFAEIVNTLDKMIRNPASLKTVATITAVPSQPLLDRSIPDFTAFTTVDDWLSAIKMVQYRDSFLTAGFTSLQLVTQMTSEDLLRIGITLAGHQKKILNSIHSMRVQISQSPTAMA

residue_codes | system | phosphorylation enrichment
VLTPKYRGGGG [HBA1_Y141_S139P] | EPHB1 (UniProt P54762) | 0.328
LNCAGYCDALE [MTUS1_Y151] | EPHB1 (UniProt P54762) | 0.621
HEKKVYSFCGT [RPS6KA3_Y226_A225V] | EPHB1 (UniProt P54762) | 0.736
IIAVHYVLEES [RYR2_Y4559] | EPHB1 (UniProt P54762) | 0.565
SIYKDYYRYNF [PLA2G2D_Y85] | EPHB1 (UniProt P54762) | 5.65
RSSNTYTLMDV [ALCAM_Y298_T301M] | EPHB1 (UniProt P54762) | 0.633
SVTCTYSPALI [TP53_Y126_N131I] | EPHB1 (UniProt P54762) | 0.906
STSYDYCRVPM [BST2_Y8] | EPHB1 (UniProt P54762) | 11.7
IRGNMYFENSF [EGFR_Y112_YF] | EPHB1 (UniProt P54762) | 0.581
FQVRRYDCDCD [CRYGS_Y21_G18V] | EPHB1 (UniProt P54762) | 0.583
RMQLPYDSTWE [PDGFRB_Y589_P584R] | EPHB1 (UniProt P54762) | 0.76
KKKKQYKDKFL [CASK_Y708_YF] | EPHB1 (UniProt P54762) | 0.687
VCDSDYSASRW [LRP5_Y1552] | EPHB1 (UniProt P54762) | 0.691
VNFDDYTVNLG [GFPT1_Y367] | EPHB1 (UniProt P54762) | 0.787

* * *

biological target: FGFR3 (UniProt P22607); experiment: phosphorylation enrichment, bacterial display (enrichment ratio); higher = better substrate or ligand; peptides without Tyr show the background
Sequence (P22607 whole entry, looked up): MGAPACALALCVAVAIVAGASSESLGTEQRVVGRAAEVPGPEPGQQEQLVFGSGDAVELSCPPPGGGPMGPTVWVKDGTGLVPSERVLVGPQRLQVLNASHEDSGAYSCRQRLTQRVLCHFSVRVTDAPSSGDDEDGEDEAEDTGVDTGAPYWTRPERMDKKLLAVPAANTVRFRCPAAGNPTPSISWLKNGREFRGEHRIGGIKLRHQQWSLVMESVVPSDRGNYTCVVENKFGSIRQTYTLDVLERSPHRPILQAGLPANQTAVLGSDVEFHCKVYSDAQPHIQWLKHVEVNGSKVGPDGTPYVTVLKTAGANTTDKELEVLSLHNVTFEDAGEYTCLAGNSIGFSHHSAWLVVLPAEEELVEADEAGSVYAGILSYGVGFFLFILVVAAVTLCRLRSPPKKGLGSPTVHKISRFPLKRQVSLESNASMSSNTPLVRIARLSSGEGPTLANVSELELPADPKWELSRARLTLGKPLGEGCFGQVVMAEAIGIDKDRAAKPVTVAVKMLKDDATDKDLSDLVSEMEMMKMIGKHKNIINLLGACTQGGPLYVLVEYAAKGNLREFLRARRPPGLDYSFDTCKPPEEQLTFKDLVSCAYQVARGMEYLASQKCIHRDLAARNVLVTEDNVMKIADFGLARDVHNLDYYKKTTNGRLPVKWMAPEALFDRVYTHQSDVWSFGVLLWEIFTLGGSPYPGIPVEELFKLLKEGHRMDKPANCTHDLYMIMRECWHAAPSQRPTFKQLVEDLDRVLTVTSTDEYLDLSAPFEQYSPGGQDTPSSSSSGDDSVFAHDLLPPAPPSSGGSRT
value_type: phosphorylation enrichment

residue_codes | reported
MKNDLYQTPLH [NFKB1_Y582_R578K] | 0.502
HRDDGYMPMSP [IRS1_Y612_T608R] | 0.715
VLRRVYVDFEG [KMT2B_Y1707] | 0.613
KGFCGYSFDDI [TMEM230_Y110_R108C_YF] | 0.863
LLANAYIYVVQ [L1CAM_Y418] | 1.01
RIVEIYSRRLR [GCH1_Y175_Q180R] | 0.549
FRRITYHNWRH [PDE6B_Y556_YF] | 0.458
TFLRTYTDAMQ [TSPAN7_Y124] | 0.548
LRNIDYYRLDG [ATRX_Y2083] | 8.11
KLPDAYEPLIL [G6PD_Y437_R439P] | 0.674
NAPNSYGRRPS [CDKN2A_Y44_I49S] | 0.541
STTSDYQWDVS [MTDH_Y364] | 0.865
YAKSVYWDNTL [NUP107_Y296_E298D] | 0.576
CLAKMYFSAVD [CP_Y539_YF] | 0.765

* * *

Measured phosphorylation enrichment by item
biological target: FGFR3 (UniProt P22607); experiment: phosphorylation enrichment, bacterial display (enrichment ratio); higher = better substrate or ligand; peptides without Tyr show the background
value_type: phosphorylation enrichment

residue_codes | system | value_type | reported
RMQLPYDSTWE [PDGFRB_Y589_P584R] | FGFR3 (UniProt P22607) | phosphorylation enrichment | 0.963
FSKQIYKGMVA [PCDH15_Y931_R929Q] | FGFR3 (UniProt P22607) | phosphorylation enrichment | 0.432
KLIETYFSKNF [PLP1_Y50_YF] | FGFR3 (UniProt P22607) | phosphorylation enrichment | 0.589
EKKDVYKAGEQ [CFH_Y1008] | FGFR3 (UniProt P22607) | phosphorylation enrichment | 0.482
LSNFNYEQRGA [API5_Y497_G493S] | FGFR3 (UniProt P22607) | phosphorylation enrichment | 1.02
KKKKQYKGKYL [CASK_Y708_D710G] | FGFR3 (UniProt P22607) | phosphorylation enrichment | 0.584
YDCGMYSHLQG [LGR4_Y848] | FGFR3 (UniProt P22607) | phosphorylation enrichment | 1
QRASDYYSQQM [GBP6_Y333_A331S] | FGFR3 (UniProt P22607) | phosphorylation enrichment | 1.22
SNMPSYSGHFT [GRIN2A_Y1224_T1223S] | FGFR3 (UniProt P22607) | phosphorylation enrichment | 0.421
IRKVLYANNVM [ACTA1_Y296_D294V] | FGFR3 (UniProt P22607) | phosphorylation enrichment | 0.395
PTATSYNPNLA [GABRA1_Y375_T376N] | FGFR3 (UniProt P22607) | phosphorylation enrichment | 0.878
SSTASYFKAPG [RFX2_Y108_E110K] | FGFR3 (UniProt P22607) | phosphorylation enrichment | 0.474
AESPEHVHMYT [FAM111A_Y511_Y511H] | FGFR3 (UniProt P22607) | phosphorylation enrichment | 0.609

* * *

Measured phosphorylation enrichment by item
system: AncSZ; experiment: phosphorylation enrichment, bacterial display (enrichment ratio); higher = better substrate or ligand; peptides without Tyr show the background
value_type: phosphorylation enrichment

residue_codes | reported
LGRTRYQHVTG [MIPEP_Y510] | 0.694
YSKDIYKRVTG [PANK2_Y405_N404I] | 0.5
PPKFFYTRKLL [CYBB_Y41] | 1.12
LESETYRRLLD [KRT12_Y429_I426S] | 1.44
CTTIHYIFMCN [TP53_Y234_N235I_YF] | 0.946
VLTPKYRGGGG [HBA1_Y141_S139P] | 0.498
EDSEYYRAFEE [CASQ2_Y179_K180R] | 2.96
SHMVNYQPYRK [TEX37_Y25_D24N] | 0.528
IGVGSYSVCKR [RPS6KA3_Y433] | 0.716
STTSDYQWDVS [MTDH_Y364] | 1.23
EQKKYYNAVKK [SCN5A_Y1495_M1498V] | 0.529
KLFRVYCDMNT [FGB_Y269_P265L_YF] | 1.11
RDHFGYRQSVT [CD55_Y245_YF] | 0.722
LLEGKYEWQEV [CDKN1B_Y74_P69L] | 2
PGIRMYQVQYN [LRFN1_Y454] | 1.06
QWLEQYTQAIE [LSP1_Y234] | 1.4
LTERGYSFVTT [ACTA1_Y200] | 1.4
KKKKQYKGKYL [CASK_Y708_D710G] | 0.667
FADIAYNYRQG [PAH_Y166_H170Q] | 0.75
RDMNAYISPSP [MMAA_Y207_R209S] | 0.505
SGIFQYIIAKF [FOXL2_Y83_YF] | 1.14
EIHTQYEAMAS [GFAP_Y242_R239H] | 0.712
AAVNGYVFGGG [ECHS1_Y137_A138V] | 0.596
AGLVQYYMEHH [PTPN11_Y80_E76G] | 0.677
LPSKDYAEVRR [HP_Y272_G276R] | 0.598
CRVEPYGENFN [APOA4_Y310_R305C] | 1.28
SRNKPYISWPS [CDC42BPB_Y1638] | 0.583
ASRKYYAMKIL [AKT3_Y174_G171R] | 0.505
SDVLSYGVTMW [ZAP70_Y525_W523L] | 0.922
KFDLMYAKHAF [TUBA1A_Y399_R402H] | 0.794
YPKAHYHWLVL [APTX_Y214_R213H] | 0.823
